Source: patent US20240390438A1

- Tested on: Colony PTA22
- assayRemarks: Antibiotic susceptibility test
- Assay type: cell-based, Lactiplantibacillus Plantarum
- measurementSetup: Lactiplantibacillus plantarum, PTA22, 24 h, read-out: Minimum inhibitory concentration of the antibiotic to PTA22, 96-well, 37 C 24 h, OD600
- Description: To test bacterial susceptibility to antibiotics, such as Aminoglycosides antibiotics, Sulfonamide antibiotics, Quinolone antibiotics, Ampicillin, Cefotaxime, Chloramphenicol, Erythromycin, Rifampicin and Tetracycline, the experimental protocol were as follow. […] The initial absorbance at 600 nm (OD600) of each well was recorded. […] Next, the OD600 of each well was measured again to determine minimum inhibitory concentration.
assayEndpoint: MIC (µg/mL)

>>> valuereported("CN(C)[C@@H]1C(O)=C(C(N)=O)C(=O)[C@@]2(O)C(O)=C3C(=O)c4c(O)cccc4[C@@](C)(O)[C@H]3C[C@@H]12 [Tetracycline]")
64
>>> valuereported("CO[C@H]1/C=C/O[C@@]2(C)Oc3c(C)c(O)c4c(O)c(c(/C=N/N5CCN(C)CC5)c(O)c4c3C2=O)NC(=O)/C(C)=C\\C=C\\[C@H](C)[C@H](O)[C@@H](C)[C@@H](O)[C@@H](C)[C@H](OC(C)=O)[C@@H]1C [Rifampicin]")
2
>>> valuereported("CC[C@H]1OC(=O)[C@H](C)[C@@H](O[C@H]2C[C@@](C)(OC)[C@@H](O)[C@H](C)O2)[C@H](C)[C@@H](O[C@@H]2O[C@H](C)C[C@H](N(C)C)[C@H]2O)[C@](C)(O)C[C@@H](C)C(=O)[C@H](C)[C@@H](O)[C@]1(C)O [Erythromycin]")
4
